# protocol.text: Thermo Scientific Acclaim RSLC 120 C18, 100 × 2.1 mm, 2.2 µm, 30 °C; A: 90% water + 10% methanol + 0.01% formic acid + 5 mM ammonium formate; B: methanol + 0.01% formic acid + 5 mM ammonium formate; gradient (min/%B) 0.1/1 3/39 14/99.9 16/99.9
# applied.conditions: stereoisomer not certain
reported.property: LC retention time
Entry format: amount then unit.

Examples from the recorded data:
>>> recorded_value("CN(C)CCc1c[nH]c2ccc(CC3COC(=O)N3)cc12 (stereo not drawn)")
"3.61 min"
>>> recorded_value("CC(O)CCn1cc(C(=O)c2cccc3ccccc23)c2ccccc21 (stereo not drawn)")
"9.91 min"
>>> recorded_value("CCCOP(=S)(OCCC)OP(=S)(OCCC)OCCC")
"12.9 min"
>>> recorded_value("O=c1cn[nH][nH]1")
"5.99 min"
>>> recorded_value("COc1ccc2c3c1OC1C(O)C=CC4C(C2)N(C)CCC341 (stereo not drawn)")
"3.4 min"
>>> recorded_value("CNC(=O)Oc1cc(C)c(SC)c(C)c1")
"9.34 min"
>>> recorded_value("CC1(C)C(C(=O)c2cn(CCN3CCOCC3)c3ccccc23)C1(C)C")
"10.7 min"
>>> recorded_value("CCCN(CC)CC1COC2(CCC(C(C)(C)C)CC2)O1 (stereo not drawn)")
"9.32 min"
>>> recorded_value("O=C(Nc1cccc(C2=NCCN2)c1)Nc1cccc(C2=NCCN2)c1")
"3.78 min"
>>> recorded_value("CCCCCn1c2ccccc2c2cc(C(=O)c3cccc4ccccc34)ccc21")
"14.2 min"

Lab note: each compound below needs its LC retention time filled in.
1. CCCCC1(COC(=O)CCC(=O)O)C(=O)N(c2ccccc2)N(c2ccccc2)C1=O
2. COc1cc(NC(C)CCCN)c2ncccc2c1 (stereo not drawn)

1: 9.61 min; 2: 6.82 min
